The reported numbers originate from PubChem BioAssay (NCI).

Tested on: SK-MEL-28 melanoma
ASSAY_NAME: NCI tumour cell line growth inhibition, 48 h
For each entry below, report its TGI value.
# value in µM; strip the unit string

Return TGI measured with SK-MEL-28 melanoma given this compound: CNC(C)C(=O)N[C@H](C(=O)N1CCC[C@@H]1CN(CCc1ccccc1)C(=O)C(F)(F)F)[C@H](C)OCC#CC#CCO[C@H](C)[C@H](NC(=O)[C@H](C)NC)C(=O)N1CCC[C@H]1CN(CCc1ccccc1)C(=O)C(F)(F)F (some centres undefined)
2.96

Return TGI measured with SK-MEL-28 melanoma given this compound: C=C1C(=O)O[C@@H]2C[C@@H]1CC[C@@]1(C)O[C@@H]1CC[C@@]1(C)O[C@@H]1CC[C@@]2(C)O
34.8

Return TGI measured with SK-MEL-28 melanoma given this compound: Cc1c(CCCl)c(N=[N+]=[N-])n2c(nc3ccccc32)c1C#N
3.27

Return TGI measured with SK-MEL-28 melanoma given this compound: O=c1[nH]c(SCc2c(Cl)c(Cl)c(Cl)c(Cl)c2Cl)nc(=S)[nH]1
98.6

Return TGI measured with SK-MEL-28 melanoma given this compound: O=C(OCC12CC3CC(CC(C3)C1)C2)c1ccc(NCc2cc(O)ccc2O)cc1
3.54

Return TGI measured with SK-MEL-28 melanoma given this compound: CC(C)=CC(=O)OC1C2C(C)C(=O)OC2C(O)C(C)C2C=CC(=O)C21C (centres undefined)
3.82

* * *

For each entry below, report its TGI value.
Tested on: A498 renal
ASSAY_NAME: NCI tumour cell line growth inhibition, 48 h

What does the data say about its TGI? Entry: Clc1ccc(-c2nn3ncccc3c2-c2ccnc(Nc3ccccc3)n2)cc1
> 23.3 µM

What does the data say about its TGI? Entry: COc1cc([C@@H]2c3cc4c(cc3[C@@H](O[C@@H]3O[C@@H]5CO[C@@H](c6cccs6)O[C@H]5[C@H](O)[C@H]3O)[C@H]3COC(=O)[C@H]23)OCO4)cc(OC)c1O
2.2 µM

What does the data say about its TGI? Entry: CNC(C)C(=O)N[C@H](C(=O)N1CCC[C@@H]1CN(CCc1ccccc1)C(=O)C(F)(F)F)[C@H](C)OCC#CC#CCO[C@H](C)[C@H](NC(=O)[C@H](C)NC)C(=O)N1CCC[C@H]1CN(CCc1ccccc1)C(=O)C(F)(F)F (some centres not stated)
2.61 µM

What does the data say about its TGI? Entry: CN(C)c1ccc(/C=C(\NC(=O)c2ccccc2)C(=O)Nc2ccccc2C(=O)O)cc1
> 100 µM

What does the data say about its TGI? Entry: Cc1cc(NS(=O)(=O)c2ccc(NC(=O)c3cccc4c(Nc5ccc(S(=O)(=O)Nc6cc(C)on6)cc5)c5ccccc5nc34)cc2)no1
> 100 µM

What does the data say about its TGI? Entry: CC(=O)OC1C(CCl)OC(N=[N+]=[N-])C(OC(C)=O)C1OC(C)=O (configuration not stated)
> 100 µM

What does the data say about its TGI? Entry: CC(C)(C)OC(=O)NC(Cc1cnc[nH]1)C(=O)N1CCCC1C(N)=O (configuration not stated)
> 100 µM

* * *

For each entry below, report its TGI value.
Tested on: KM12 colon
ASSAY_NAME: NCI tumour cell line growth inhibition, 48 h
# value in µM; strip the unit string

What does the data say about its TGI? Entry: CC(=O)Nc1cc2c(cc1O)CC[C@@H]1[C@@H]2CC[C@]2(C)[C@@H](O)CC[C@@H]12
31.4

What does the data say about its TGI? Entry: N#Cc1c(-c2ccccc2)cc(-c2ccccc2)n(CCCCC(=O)NO)c1=O
13.6

What does the data say about its TGI? Entry: CC(C)=CC(=O)OC1C2C(C)C(=O)OC2C(O)C(C)C2C=CC(=O)C21C (stereo unspecified)
9.31

What does the data say about its TGI? Entry: CC1(C)C[C@H]2C=C(C=O)[C@]34C[C@]3(C(=O)OC4O)[C@H]2C1 (stereo partly specified)
5.6

What does the data say about its TGI? Entry: Oc1cc(O)c2c(=S)cc(-c3ccc(Cl)cc3)oc2c1
11.5
